# Subject of test: T1, Soluble IGF-1R (R&D Systems, Cat. # 391-GR/CF); recombinant human IGF-1R (human, UniProt P08069 31-935)
# T1 construct: extracellular domain; Eu3+-labelled in the TR-FRET assays; also called sIGF-1R; rhIGF-1R
# Experimental details: phage ELISA vs milk
Positions of bridges follow the written chain, without caps; N, C: chain ends. No end group written: not given here.
Assignment: determine reported Ratio over Background for the given binders.
One number for each entry, in fold.

Answered cases to consult:
FYVQQWGHENFYDWFDRQVSQSGGAG [H2CA-4-F1-IGFR] :: 3.5
LSSDGQFYRALNLLLQGSAGR [20E2B-2-B7-IGFR] :: 6.1
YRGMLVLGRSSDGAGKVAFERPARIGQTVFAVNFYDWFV [A6L-0-E6-IR] :: 31

What the record says about LQPCSGFYECIERLIGVKLSG (disulfide 4-10 (inferred)) [20E2Bβ-4-G7-IR] : Ratio over Background is 25.2
